# testTarget: T1, full-length human 14-3-3γ fused to the C terminus of MBP (human, UniProt P61981 1-247)
# T1 chain: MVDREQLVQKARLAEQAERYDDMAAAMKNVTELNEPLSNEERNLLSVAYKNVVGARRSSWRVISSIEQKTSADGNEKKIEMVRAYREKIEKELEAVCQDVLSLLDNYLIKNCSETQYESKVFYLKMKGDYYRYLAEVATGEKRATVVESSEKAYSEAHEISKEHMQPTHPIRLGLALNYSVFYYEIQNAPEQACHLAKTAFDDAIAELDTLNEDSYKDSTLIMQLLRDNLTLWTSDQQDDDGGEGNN
# testSummary: FP
Non-standard residues stand in square brackets, D forms with d. No end group written: not given here. *: point of attachment. Biotin = O=C1N[C@H]2[C@H](CS[C@H]2CCCCC(=O)*)N1; pT = C[C@@H](OP(=O)(O)O)[C@H](N)C(=O)O; ttds = NCCCOCCOCCOCCCNC(=O)CCC(=O)*
readoutLabel: Kd (µM)

> print(dat)
                                     binder  readoutlabel  resultvalue
1  {Biotin-ttds}-SSRTRRE[pT]QL [HPV16 E6 phospho-PBM peptide p16E6]            Kd         37.2
2  {Biotin-ttds}-RRVRKLPS[pT]TL [RSK1 phospho-PBM peptide RSK1_-2P]            Kd          0.2
3  {Biotin-ttds}-RRVRKLPST[pT]L [RSK1 phospho-PBM peptide RSK1_-1P]            Kd          0.3
4  {Biotin-ttds}-RLQRRRE[pT]QV [HPV18 E6 phospho-PBM peptide p18E6]            Kd         11.1
